Where do the numbers come from? From PubChem BioAssay (NCI).

Consider the following compounds; for each one, report its growth.
# System: SW-620 colon
# Experiment Notes: NCI-60 one-dose screen, 48 h (100 = growth as untreated, 0 = no growth, -100 = all killed)
# Study Conditions: 10 µM unless noted
The panel holds about 83,000 compounds, 20% with a hit somewhere; the sample as a whole holds those more often. The source made the active and inactive calls. How the source made its calls: active means growth percent below 10; inactive means the rest.

Compound	Readout Label	Readout Value
O=C(O)c1ccc2c3ccc(C(=O)O)c4c(C(=O)O)ccc(c5ccc(C(=O)O)c1c25)c43	growth	97.5% (inactive)
CC(C)(C)OC(=O)CC1(O)CCCCC1	growth	103% (inactive)
COc1ccc(COC=O)cc1	growth	108% (inactive)
CCN(CC)CCO/N=C1\CC(c2ccc(OC)c(OC)c2)Oc2ccccc21 (centres undefined)	growth	90.3% (inactive)
O=C1Cc2ccccc2C(=O)N1	growth	56.6% (inactive)
CN(C=O)c1ccccc1	growth	104% (inactive)
CC(C)(C)OC(=O)NCCc1ccc(N)cc1	growth	97.6% (inactive)
OCCS	growth	109% (inactive)

Could I get growth for every one of these entries?
1. Clc1ccc2c(c1)N(C1CCCN(Cc3ccccc3)C1)c1ccccc1S2 (centres undefined)
2. CCCC(=O)Oc1ccc2ccccc2c1
3. Nc1c(Cl)cc2c(c1Br)C(=O)c1ccccc1C2=O
4. C/C=C(/C(=O)NC(N)=O)C(C)C
5. COc1ccc(CCNC(=S)NN)cc1OC
6. O=C1C=CC(=O)N1Cc1ccco1

Reply:
22.6% (inactive)
92.1% (inactive)
99.6% (inactive)
94.5% (inactive)
99% (inactive)
58.4% (inactive)
